# PROCEDURE_TEXT: Growth inhibition of human HepG2 cells after 72 hrs by MTT assay
# Type: functional, cell-based
# COND: hepg2
pIC50: −log10 of the molar value.
Recorded pIC50 values for a group of compounds are listed next.
READOUT_NAME: pIC50

INSERT INTO measurements (compound, readout_name, observed_result) VALUES
  ('N#Cc1ccc(C(O)C2=C3C=C[C@@H]4C[C@@]3(OC2=O)[C@H]2CCCCN42)cc1 (stereo in doubt; 4a-5-b)', 'pIC50', 4.85),
  ('N#Cc1ccc(C(O)C2=C3C=C[C@@H]4C[C@@]3(OC2=O)[C@H]2CCCCN42)cc1 (stereo in doubt; 4a-5-a)', 'pIC50', 4.85),
  ('O=C1O[C@@]23C[C@@H](C=CC2=C1C(O)c1ccc(Cl)cc1)N1CCCC[C@@H]13 (stereo in doubt; 4a-3-a)', 'pIC50', 4.88),
  ('O=C1O[C@@]23C[C@@H](C=CC2=C1C(O)c1ccc(C(F)(F)F)cc1)N1CCCC[C@@H]13 (stereo in doubt; 4a-6-b)', 'pIC50', 5.59),
  ('O=C1O[C@@]23C[C@@H](C=CC2=C1C(O)c1ccc(F)cc1)N1CCCC[C@@H]13 (stereo in doubt; 4a-2-a)', 'pIC50', 5.00),
  ('O=C1O[C@@]23C[C@@H](C=CC2=C1C(O)c1ccc(C(F)(F)F)cc1)N1CCCC[C@@H]13 (stereo in doubt; 4a-6-a)', 'pIC50', 5.65),
  ('O=C1O[C@@]23C[C@@H](C=CC2=C1C(O)c1ccc(F)cc1)N1CCCC[C@@H]13 (stereo in doubt; 4a-2-b)', 'pIC50', 5.00),
  ('O=C1O[C@@]23C[C@@H](C=CC2=C1C(O)c1ccc(Br)cc1)N1CCCC[C@@H]13 (stereo in doubt; 4a-4-b)', 'pIC50', 4.85);
